Target: Gal3S(b1-4)Glc6S
Assay: glycan array binding signal (z-score within array); higher = stronger binding
Settings: glycan notation: IUPAC condensed, linker removed
The sample as a whole holds a higher share of the strongest signals than the screen did.
MEASURE: glycan array binding signal (z-score)

1. KILRGVCKKIMRTFLRRISKDILTGKK [NK2 (Sus scrofa)] : 1.67
